# study target: c-KIT (Homo sapiens, UniProt P10721)
# Sequence (P10721 26-976): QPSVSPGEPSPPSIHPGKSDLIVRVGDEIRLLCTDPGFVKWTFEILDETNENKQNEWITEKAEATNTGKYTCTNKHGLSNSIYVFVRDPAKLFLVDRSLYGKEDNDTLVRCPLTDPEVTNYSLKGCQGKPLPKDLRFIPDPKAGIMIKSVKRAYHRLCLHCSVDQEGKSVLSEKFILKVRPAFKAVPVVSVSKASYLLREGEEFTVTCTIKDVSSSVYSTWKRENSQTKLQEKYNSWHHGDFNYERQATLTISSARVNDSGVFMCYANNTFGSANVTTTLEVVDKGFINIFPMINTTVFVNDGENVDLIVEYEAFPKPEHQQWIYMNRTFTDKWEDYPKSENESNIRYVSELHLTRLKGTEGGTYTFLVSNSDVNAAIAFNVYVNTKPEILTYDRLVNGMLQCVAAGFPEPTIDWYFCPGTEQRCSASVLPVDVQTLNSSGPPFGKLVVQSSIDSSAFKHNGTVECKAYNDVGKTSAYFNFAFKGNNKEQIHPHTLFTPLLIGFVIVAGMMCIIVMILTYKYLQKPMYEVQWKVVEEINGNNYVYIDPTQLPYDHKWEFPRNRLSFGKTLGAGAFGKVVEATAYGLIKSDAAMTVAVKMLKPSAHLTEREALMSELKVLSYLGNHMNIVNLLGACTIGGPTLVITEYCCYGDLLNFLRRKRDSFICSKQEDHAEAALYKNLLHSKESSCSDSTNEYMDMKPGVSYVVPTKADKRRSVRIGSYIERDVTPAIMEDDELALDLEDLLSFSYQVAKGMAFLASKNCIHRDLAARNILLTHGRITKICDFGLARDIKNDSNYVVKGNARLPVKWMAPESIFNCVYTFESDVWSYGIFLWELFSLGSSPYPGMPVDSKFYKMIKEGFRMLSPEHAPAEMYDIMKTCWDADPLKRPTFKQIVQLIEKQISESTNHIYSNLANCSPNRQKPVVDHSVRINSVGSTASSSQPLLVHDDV
# experiment summary: cKIT inhibition assay (electrophoretic mobility shift)
# Type: biochemical
# Design: purchased Millipore 14-559
# conditions used: inhibition of cKIT phosphorylation
pIC50: −log10 of the molar value.
measured quantity: pIC50

>>> df
                                   compound  measured_quantity  reported_value
0  C=CC(=O)Nc1ccc(NC(=O)Nc2ccc(Oc3ccnc(C(=O)NC)c3)cc2)cc1C(F)(F)F [Compound 7]              pIC50            7.51

###

# study target: UniProt:P36888
# Sequence (P36888 27-993): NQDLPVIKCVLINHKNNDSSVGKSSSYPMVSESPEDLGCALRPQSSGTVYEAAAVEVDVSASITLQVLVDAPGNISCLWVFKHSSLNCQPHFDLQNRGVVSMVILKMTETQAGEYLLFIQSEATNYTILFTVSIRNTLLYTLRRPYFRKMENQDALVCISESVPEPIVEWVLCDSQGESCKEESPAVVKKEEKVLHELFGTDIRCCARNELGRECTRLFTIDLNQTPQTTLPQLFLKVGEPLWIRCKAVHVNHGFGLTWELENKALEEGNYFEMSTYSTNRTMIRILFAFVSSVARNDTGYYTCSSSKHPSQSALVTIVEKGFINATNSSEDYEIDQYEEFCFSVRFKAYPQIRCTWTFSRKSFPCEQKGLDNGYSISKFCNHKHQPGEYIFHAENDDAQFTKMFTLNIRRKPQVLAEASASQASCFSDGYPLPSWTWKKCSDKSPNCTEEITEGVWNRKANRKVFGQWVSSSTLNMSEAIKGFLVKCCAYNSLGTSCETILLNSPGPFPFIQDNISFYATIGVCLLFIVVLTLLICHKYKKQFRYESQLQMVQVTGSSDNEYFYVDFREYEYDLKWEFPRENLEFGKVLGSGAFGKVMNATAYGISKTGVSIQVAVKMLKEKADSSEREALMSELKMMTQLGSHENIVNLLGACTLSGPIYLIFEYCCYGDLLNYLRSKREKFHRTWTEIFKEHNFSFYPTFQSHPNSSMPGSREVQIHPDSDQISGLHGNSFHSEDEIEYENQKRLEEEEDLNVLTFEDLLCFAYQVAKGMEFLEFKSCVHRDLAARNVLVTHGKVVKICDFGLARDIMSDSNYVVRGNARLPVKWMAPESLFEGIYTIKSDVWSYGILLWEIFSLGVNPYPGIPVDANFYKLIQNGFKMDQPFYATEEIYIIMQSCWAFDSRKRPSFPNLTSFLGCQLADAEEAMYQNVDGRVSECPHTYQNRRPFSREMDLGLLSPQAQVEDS
measured quantity: IC50 (nM)

>>> df
                              smiles_record    study_target   u  reported_value
0  C=CC(=O)Nc1ccc(Sc2nc(Nc3cc(C)n[nH]3)cc(N3CCN(C)CC3)n2)cc1  UniProt:P36888  nM             2.2

###

# study target: HCV NS3/4A 1b protease WT (Hepatitis C virus genotype 1b)
# Sequence (P26662 1658-1711): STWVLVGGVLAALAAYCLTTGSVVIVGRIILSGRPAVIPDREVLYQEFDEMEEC
# Sequence (P26662 1027-1208): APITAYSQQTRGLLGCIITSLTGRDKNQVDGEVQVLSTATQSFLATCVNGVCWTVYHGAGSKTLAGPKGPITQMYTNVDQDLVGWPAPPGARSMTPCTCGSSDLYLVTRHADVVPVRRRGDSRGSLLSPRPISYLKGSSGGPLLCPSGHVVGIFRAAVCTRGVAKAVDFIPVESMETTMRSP
# experiment summary: HCV Protease FRET Assay for wild type NS3/4A 1b enzyme (IC50)
# Assay type: biochemical
# conditions used: 30 min pre-incubation
List of IC50 values.

compound	IC50
C=C[C@@H]1C[C@]1(NC(=O)[C@@H]1C[C@@H](Oc2cc(-c3ccccc3)nc3cc(OC)ccc23)CN1C(=O)CNC(=O)CC)C(=O)NS(=O)(=O)c1ccccc1 [Compound 11, reference compound]	165 nM
C=CC(=O)NCC(=O)N1C[C@H](Oc2cc(-c3ccccc3)nc3cc(OC)ccc23)C[C@H]1C(=O)N[C@]1(C(=O)NS(=O)(=O)c2ccccc2)C[C@H]1C=C [Compound 12]	0.3 nM
